Hi there, I'd appreciate the recorded log2 ratio of Biotin-Ahx-Ub-VS probe labelling for every entry that follows.
# TESTED_SYSTEM: BAP1 (UniProt Q92560)
# Sequence (Q92560 whole entry, the tested form may be a part): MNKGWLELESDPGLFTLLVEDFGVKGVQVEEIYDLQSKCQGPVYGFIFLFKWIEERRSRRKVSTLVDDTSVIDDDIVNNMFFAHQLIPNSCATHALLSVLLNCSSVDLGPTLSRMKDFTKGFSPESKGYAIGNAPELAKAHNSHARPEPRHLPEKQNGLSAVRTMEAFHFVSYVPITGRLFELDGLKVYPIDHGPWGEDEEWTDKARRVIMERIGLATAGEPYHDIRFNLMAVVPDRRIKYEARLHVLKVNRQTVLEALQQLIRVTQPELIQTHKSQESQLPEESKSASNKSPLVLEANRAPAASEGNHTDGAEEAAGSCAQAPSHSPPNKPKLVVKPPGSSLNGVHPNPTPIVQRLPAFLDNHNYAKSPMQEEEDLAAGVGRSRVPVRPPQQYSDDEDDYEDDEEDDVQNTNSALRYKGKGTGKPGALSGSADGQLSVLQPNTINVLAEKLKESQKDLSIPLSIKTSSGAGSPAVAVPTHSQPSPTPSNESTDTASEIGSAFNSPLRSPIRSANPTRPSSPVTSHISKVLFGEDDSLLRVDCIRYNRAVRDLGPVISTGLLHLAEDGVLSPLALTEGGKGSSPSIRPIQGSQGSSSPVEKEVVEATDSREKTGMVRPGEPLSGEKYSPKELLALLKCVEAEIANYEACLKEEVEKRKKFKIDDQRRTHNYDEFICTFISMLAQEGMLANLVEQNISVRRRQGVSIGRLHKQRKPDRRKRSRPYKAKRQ
# PROCEDURE_SUMMARY: log2 ratio of Biotin-Ahx-Ub-VS probe labelling (fragment/DMSO); higher = less target engagement (more negative = stronger competition), active = hit call of the paper (q ≤ 0.05, log2 ratio ≤ -1)
# CONDITIONS: compound concentration: 200 uM; treatment time: 3 h

Would you please look over these solved cases?
{"COMPOUND": "Cc1ccccc1C1(CNC(=O)CCl)CCOCC1", "RESULT": "-1.23 (active)"}
{"COMPOUND": "O=C(CCl)N1CCN2C(=O)CCC2C1 (centres undefined)", "RESULT": "-0.591 (inactive)"}
{"COMPOUND": "O=C(CCl)N1CCOC2(CCC2)C1", "RESULT": "-0.352 (inactive)"}

For every item in the list below, what is its measured log2 ratio of Biotin-Ahx-Ub-VS probe labelling?
1. O=C(CCl)NC1CCOc2ccccc21 (centres undefined)
2. O=C(CCl)N1CCc2nc[nH]c2C1c1ccc(Cl)cc1 (centres undefined)
3. CNC(=O)Cn1cc(NC(=O)CCl)cn1
4. NC(=O)C1CCCCN1C(=O)CCl (centres undefined)
5. Cc1ccc(C)c(Oc2ccc(CNC(=O)CCl)cn2)c1.Cl
6. O=C(CCl)N1CC2(CCOCC2)C1
7. CC(C)n1nccc1NC(=O)CCl

A:
-2.55 (active)
-1.65 (active)
-1.67 (active)
-0.748 (inactive)
-3.94 (active)
-0.382 (inactive)
-4.23 (active)

For every item in the list below, what is its measured log2 ratio of Biotin-Ahx-Ub-VS probe labelling?
1. CC1CN(c2ccc(NC(=O)CCl)cc2)CC(C)O1 (centres undefined)
2. O=C(CCl)N1CCC2(CCC(O)CC2)CC1
3. O=C(CCl)N1CCC(c2noc3cc(F)ccc23)CC1

A:
-2.48 (active)
-0.626 (inactive)
-1.19 (active)

Form: compound = O=C(CCl)N1CCc2sccc2C1 ; log2 ratio of Biotin-Ahx-Ub-VS probe labelling = -0.988 (inactive)
